experimental target: Bovine lysyl oxidase (LOX) (Bos taurus, UniProt P33072)
Sequence (P33072 170-418): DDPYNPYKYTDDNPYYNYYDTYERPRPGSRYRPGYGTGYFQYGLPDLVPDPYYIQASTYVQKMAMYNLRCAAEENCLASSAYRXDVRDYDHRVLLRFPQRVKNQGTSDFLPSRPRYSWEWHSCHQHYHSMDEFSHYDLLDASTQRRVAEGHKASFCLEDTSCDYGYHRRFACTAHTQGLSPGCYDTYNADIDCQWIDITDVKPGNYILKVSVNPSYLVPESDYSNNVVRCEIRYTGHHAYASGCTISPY
measurement type: IC50

These recorded examples may help you get a feel for the data.
INSERT INTO measurements (compound, measurement_type, result) VALUES
  ('NCc1ccnc(S(=O)(=O)N2C[C@@H](C(=O)N3CCOCC3)C[C@@H](C3CCCCC3)C2)c1 (racemic) [Example 145, 2,2,2-trifluoroacetate]', 'IC50', '1 to 30 µM'),
  ('NCc1ccc(S(=O)(=O)N2C[C@@H](C(=O)N3CCNCC3)C[C@@H](c3ccccc3)C2)s1 (racemic) [Example 15, 2,2,2-trifluoroacetate]', 'IC50', '0.5 to 1 µM'),
  ('NCc1ccnc(S(=O)(=O)N2C[C@@H](C(=O)N3CCOCC3)C[C@@H](c3ccccc3)C2)c1 (relative stereo) [Example 133, 2,2,2-trifluoroacetate]', 'IC50', '1 to 30 µM'),
  ('NCc1cccc(S(=O)(=O)N2C[C@@H](C(=O)N3CCOCC3)C[C@@H](C(F)(F)F)C2)c1 (relative stereo) [Example 98, 2,2,2-trifluoroacetate]', 'IC50', '> 30 µM'),
  ('CN(C)C(=O)[C@H]1C[C@@H](C2CCCCC2)CN(S(=O)(=O)c2cccc(CN)c2)C1 (relative stereo) [Example 138, 2,2,2-trifluoroacetate]', 'IC50', '> 30 µM'),
  ('NCc1ccnc(S(=O)(=O)N2C[C@H](C(=O)N3CCOCC3)C[C@H](c3ccccc3)C2)c1 [Example 133B, 2,2,2-trifluoroacetate]', 'IC50', '1 to 30 µM'),
  ('CS(=O)(=O)N1CCN(C(=O)[C@H]2C[C@@H](c3ccccc3F)CN(S(=O)(=O)c3ccc(CN)s3)C2)CC1.O=C(O)C(F)(F)F (racemic) [Example 91, 2,2,2-trifluoroacetate]', 'IC50', '≤ 0.5 µM'),
  ('CS(=O)(=O)[C@@H]1C[C@H](Oc2cccc(CN)c2)CN(c2ccccc2)C1 (racemic) [Example 21, 2,2,2-trifluoroacetate]', 'IC50', '> 30 µM');

Each of the following entries comes with a recorded value; kindly state IC50 for each.
1. NCc1cccc(O[C@H]2C[C@H](c3ccccc3)CN(C(=O)N3CCS(=O)(=O)CC3)C2)c1 (racemic)
2. CS(=O)(=O)[C@H]1C[C@@H](S(=O)(=O)c2cccc(CN)c2)CN(c2ccccc2F)C1 (racemic) [Example 92, 2,2,2-trifluoroacetate]
3. CS(=O)(=O)N1C[C@H](Oc2ccc(CN)cc2)C[C@H](c2ccccc2)C1 (racemic) [Example 24, 2,2,2-trifluoroacetate]
4. NCc1ccc(S(=O)(=O)N2C[C@H](C(=O)N3CCOCC3)C[C@H](c3ccccc3)C2)s1 [Example 13B]

Result ::
1: > 30 µM; 2: > 30 µM; 3: > 30 µM; 4: ≤ 0.5 µM

====

experimental target: Recombinant human LOXL2 (lysyl oxidase like 2) (Homo sapiens)
Construct: purchased R&D systems
Sequence (Q9Y4K0 26-774): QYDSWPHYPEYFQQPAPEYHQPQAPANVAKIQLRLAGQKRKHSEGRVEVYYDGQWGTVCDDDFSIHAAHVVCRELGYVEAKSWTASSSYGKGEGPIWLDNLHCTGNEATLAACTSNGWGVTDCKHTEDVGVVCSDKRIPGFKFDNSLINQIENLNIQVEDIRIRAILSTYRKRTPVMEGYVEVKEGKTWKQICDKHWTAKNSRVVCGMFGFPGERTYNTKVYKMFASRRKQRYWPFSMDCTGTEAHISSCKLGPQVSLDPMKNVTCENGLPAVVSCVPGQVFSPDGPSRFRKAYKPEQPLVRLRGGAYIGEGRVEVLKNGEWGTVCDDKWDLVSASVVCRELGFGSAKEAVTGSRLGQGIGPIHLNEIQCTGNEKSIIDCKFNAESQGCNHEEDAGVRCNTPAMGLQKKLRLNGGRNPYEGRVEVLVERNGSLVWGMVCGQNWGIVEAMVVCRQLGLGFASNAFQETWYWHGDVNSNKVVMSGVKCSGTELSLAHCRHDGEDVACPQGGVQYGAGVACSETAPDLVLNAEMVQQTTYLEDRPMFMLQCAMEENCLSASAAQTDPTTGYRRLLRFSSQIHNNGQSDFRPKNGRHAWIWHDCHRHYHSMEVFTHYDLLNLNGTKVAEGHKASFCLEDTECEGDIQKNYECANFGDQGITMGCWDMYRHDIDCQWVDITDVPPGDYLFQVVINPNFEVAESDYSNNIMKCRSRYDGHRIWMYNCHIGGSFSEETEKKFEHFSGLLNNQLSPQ
test: LOXL2 inhibition assay (fluorometric, cadaverine/Amplex Red/HRP)
Format: biochemical
test context: IC50 class; recombinant human LOXL2, cadaverine substrate; read-out: Activity Range LOXL2
pIC50: −log10 of the molar value.
measurement type: pIC50

INSERT INTO measurements (compound, experimental_target, result) VALUES
  ('NCc1cccc(S(=O)(=O)N2C[C@@H](C(=O)N3CCOCC3)C[C@@H](c3ccccc3)C2)n1 (racemic)', 'Recombinant human LOXL2 (lysyl oxidase like 2) (Homo sapiens)', '< 4.52'),
  ('NCc1cccc(S(=O)(=O)N2C[C@@H](C(=O)N3CCS(=O)(=O)CC3)C[C@@H](C(F)(F)F)C2)c1 (racemic) [Example 99, 2,2,2-trifluoroacetate]', 'Recombinant human LOXL2 (lysyl oxidase like 2) (Homo sapiens)', '4.52 to 6.00'),
  ('NCc1cccc(S(=O)(=O)N2C[C@H](C(=O)N3CCOCC3)C[C@@H](c3ccccc3)C2)n1 (racemic) [Example 114T, 2,2,2-trifluoroacetate]', 'Recombinant human LOXL2 (lysyl oxidase like 2) (Homo sapiens)', '4.52 to 6.00'),
  ('CS(=O)(=O)N1C[C@@H](c2ccccc2)C[C@@H](S(=O)(=O)c2cccc(CN)c2)C1 (racemic) [Example 27, 2,2,2-trifluoroacetate]', 'Recombinant human LOXL2 (lysyl oxidase like 2) (Homo sapiens)', '≥ 6.30');

Provide the reported pIC50 of each entry below, same order.
1. NCc1ccc(S(=O)(=O)N2C[C@H](C(=O)N3CCOCC3)C[C@H](c3ccccc3)C2)s1 [Example 13B]
2. CS(=O)(=O)[C@@H]1C[C@H](Oc2cccc(CN)c2)CN(c2ccccc2)C1 (racemic) [Example 21, 2,2,2-trifluoroacetate]
3. NCc1cccc(O[C@@H]2C[C@H](c3ccccc3)CN(C(=O)N3CCOCC3)C2)c1 (racemic)
4. NCc1cccc(S(=O)(=O)N2C[C@H](C(=O)N3CCS(=O)(=O)CC3)C[C@@H](c3ccccc3)C2)c1 (racemic) [Example 85, 2,2,2-trifluoroacetate]
5. CC(N)c1cccc(S(=O)(=O)N2C[C@H](C(=O)N3CCOCC3)C[C@@H](c3ccccc3)C2)c1 (mixture of isomers) [Example 102TR, 2,2,2-trifluoroacetate]
6. NCc1ccnc(S(=O)(=O)N2C[C@H](C(=O)N3CCOCC3)C[C@H](c3ccccc3)C2)c1 [Example 133B, 2,2,2-trifluoroacetate]
7. CS(=O)(=O)N1C[C@H](Oc2cccc(CN)c2)C[C@H](c2ccccc2F)C1 (racemic) [Example 70, 2,2,2-trifluoroacetate]

Result ::
1: ≥ 6.30; 2: 6.00 to 6.30; 3: 4.52 to 6.00; 4: ≥ 6.30; 5: < 4.52; 6: ≥ 6.30; 7: ≥ 6.30

====

experimental target: Recombinant human LOXL2 (lysyl oxidase like 2) (Homo sapiens)
Sequence (Q9Y4K0 26-774): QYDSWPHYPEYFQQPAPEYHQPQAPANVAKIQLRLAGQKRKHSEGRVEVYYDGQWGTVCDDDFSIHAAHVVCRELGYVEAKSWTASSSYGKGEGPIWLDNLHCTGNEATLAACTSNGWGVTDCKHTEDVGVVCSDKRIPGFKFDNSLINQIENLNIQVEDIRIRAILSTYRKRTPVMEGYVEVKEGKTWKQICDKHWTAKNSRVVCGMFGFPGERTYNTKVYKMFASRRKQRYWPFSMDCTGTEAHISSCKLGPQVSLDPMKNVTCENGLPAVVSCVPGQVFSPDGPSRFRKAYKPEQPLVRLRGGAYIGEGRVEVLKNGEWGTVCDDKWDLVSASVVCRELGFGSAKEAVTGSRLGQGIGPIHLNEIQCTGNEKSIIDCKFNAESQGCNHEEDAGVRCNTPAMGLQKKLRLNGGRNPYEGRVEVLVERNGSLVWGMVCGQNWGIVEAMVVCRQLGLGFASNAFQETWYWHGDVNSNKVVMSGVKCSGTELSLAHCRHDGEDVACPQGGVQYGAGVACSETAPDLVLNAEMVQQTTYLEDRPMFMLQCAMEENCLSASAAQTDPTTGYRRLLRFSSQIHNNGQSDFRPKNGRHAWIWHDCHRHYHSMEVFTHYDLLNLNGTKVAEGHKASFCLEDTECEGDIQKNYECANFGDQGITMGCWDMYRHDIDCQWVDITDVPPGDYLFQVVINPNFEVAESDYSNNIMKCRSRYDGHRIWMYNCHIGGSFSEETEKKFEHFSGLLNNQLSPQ
test: LOXL2 inhibition assay (fluorometric, cadaverine/Amplex Red/HRP)
test context: IC50 class; recombinant human LOXL2, cadaverine substrate; read-out: Activity Range LOXL2
pIC50: −log10 of the molar value.
What pIC50 was measured for each of the following?

Field: example entries. Status: answers known.
INSERT INTO measurements (molecule, measurement_type, result) VALUES
  ('CS(=O)(=O)[C@@H]1C[C@H](Oc2ccc(CN)cc2)CN(c2ccccc2)C1 (racemic) [Example 20]', 'pIC50', '4.52 to 6.00'),
  ('NCc1cccc(O[C@@H]2C[C@H](c3ccccc3)CN(C(=O)N3CCS(=O)(=O)CC3)C2)c1 (racemic) [Example 73]', 'pIC50', '4.52 to 6.00'),
  ('CS(=O)(=O)N1CCN(C(=O)[C@H]2C[C@@H](c3ccccc3)CN(S(=O)(=O)c3ncc(CN)s3)C2)CC1 (racemic) [Example 113, 2,2,2-trifluoroacetate]', 'pIC50', '≥ 6.30');

Batch request: pIC50 per item, same order as input.
1. CC(N)c1cccc(S(=O)(=O)N2C[C@H](C(=O)N3CCS(=O)(=O)CC3)C[C@@H](c3ccccc3)C2)c1 (mixture of isomers) [Example 106, 2,2,2-trifluoroacetate]
2. NCc1cccc(S(=O)(=O)N2C[C@H](C(=O)N3CCOCC3)C[C@@H](C(F)(F)F)C2)c1 (racemic) [Example 110, 2,2,2-trifluoroacetate]

Result ::
1: < 4.52; 2: 4.52 to 6.00

Query :: Give pIC50 for CS(=O)(=O)N1C[C@@H](Oc2cc(CN)ccc2F)C[C@H](c2ccccc2)C1 (racemic) [Example 90, 2,2,2-trifluoroacetate]
Result :: 6.00 to 6.30
